# Study Target: Dual specificity protein kinase CLK1 (Homo sapiens, UniProt P49759)
# Experiment Summary: Inhibition of human recombinant GST-tagged Clk1 (129 to 484 residues) expressed in Escherichia coli expression system at 100 nM using GRSRSRSRSRSRSRS peptide as substrate incubated for 15 mins in presence of ATP by phosphoimager analysis relative to control
# Sequence (P49759 whole entry, looked up, the tested form may be a part): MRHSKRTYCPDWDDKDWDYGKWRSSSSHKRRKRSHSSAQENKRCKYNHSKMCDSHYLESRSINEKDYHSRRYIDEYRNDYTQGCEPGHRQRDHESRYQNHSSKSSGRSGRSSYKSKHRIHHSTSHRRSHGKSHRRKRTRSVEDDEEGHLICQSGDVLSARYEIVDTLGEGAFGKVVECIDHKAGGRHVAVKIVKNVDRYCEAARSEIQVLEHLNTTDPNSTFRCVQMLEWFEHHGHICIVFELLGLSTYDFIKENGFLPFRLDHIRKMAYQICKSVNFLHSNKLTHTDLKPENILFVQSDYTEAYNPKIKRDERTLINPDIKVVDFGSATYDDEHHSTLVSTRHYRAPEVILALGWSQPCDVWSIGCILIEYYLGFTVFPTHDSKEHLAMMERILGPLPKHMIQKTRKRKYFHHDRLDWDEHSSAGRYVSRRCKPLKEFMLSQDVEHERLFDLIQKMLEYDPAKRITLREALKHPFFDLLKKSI

{"Structure Smiles String": "COc1ccc2sc(C(=O)NC(=O)c3ccc(Br)cc3OC)cc2c1", "Study Target": "Dual specificity protein kinase CLK1 (Homo sapiens, UniProt P49759)", "Unit Annotation": "%", "inhibition": 61}
{"Structure Smiles String": "COc1ccc2sc(C(=O)NC(=O)c3cc(C)cc(F)c3)cc2c1", "Study Target": "Dual specificity protein kinase CLK1 (Homo sapiens, UniProt P49759)", "Unit Annotation": "%", "inhibition": 51.8}
{"Structure Smiles String": "CCOc1ccccc1C(=O)NC(=O)c1cc2cc(OC)ccc2s1", "Study Target": "Dual specificity protein kinase CLK1 (Homo sapiens, UniProt P49759)", "Unit Annotation": "%", "inhibition": 63.3}
{"Structure Smiles String": "COc1ccc(C(=O)NC(=O)c2cc3cc(OC)ccc3s2)c(OC)c1", "Study Target": "Dual specificity protein kinase CLK1 (Homo sapiens, UniProt P49759)", "Unit Annotation": "%", "inhibition": 42.2}
{"Structure Smiles String": "COc1ccc2sc(C(=O)NC(=O)c3ccccc3OC(F)(F)F)cc2c1", "Study Target": "Dual specificity protein kinase CLK1 (Homo sapiens, UniProt P49759)", "Unit Annotation": "%", "inhibition": 64.4}
{"Structure Smiles String": "COc1ccc2sc(C(=O)NC(=O)c3cccc(F)n3)cc2c1", "Study Target": "Dual specificity protein kinase CLK1 (Homo sapiens, UniProt P49759)", "Unit Annotation": "%", "inhibition": 67.1}
{"Structure Smiles String": "COc1ccc2sc(C(=O)NC(=O)c3cc(F)ccc3F)cc2c1", "Study Target": "Dual specificity protein kinase CLK1 (Homo sapiens, UniProt P49759)", "Unit Annotation": "%", "inhibition": 65.6}
{"Structure Smiles String": "COc1ccc2sc(C(=O)NC(=O)c3cccc(OC)c3OC)cc2c1", "Study Target": "Dual specificity protein kinase CLK1 (Homo sapiens, UniProt P49759)", "Unit Annotation": "%", "inhibition": 27.7}
{"Structure Smiles String": "COc1ccc2sc(C(=O)NC(=O)c3cccc(Cl)c3OC)cc2c1", "Study Target": "Dual specificity protein kinase CLK1 (Homo sapiens, UniProt P49759)", "Unit Annotation": "%", "inhibition": 2.2}
{"Structure Smiles String": "COc1ccc2sc(C(=O)NC(=O)c3ccccc3OC)cc2c1", "Study Target": "Dual specificity protein kinase CLK1 (Homo sapiens, UniProt P49759)", "Unit Annotation": "%", "inhibition": 86.6}
{"Structure Smiles String": "COc1ccc2sc(C(=O)NC(=O)c3cccc(OC)n3)cc2c1", "Study Target": "Dual specificity protein kinase CLK1 (Homo sapiens, UniProt P49759)", "Unit Annotation": "%", "inhibition": 42.3}
{"Structure Smiles String": "COc1cc(F)c(C(=O)NC(=O)c2cc3cc(OC)ccc3s2)c(F)c1", "Study Target": "Dual specificity protein kinase CLK1 (Homo sapiens, UniProt P49759)", "Unit Annotation": "%", "inhibition": 10.6}
{"Structure Smiles String": "COc1ccc2sc(C(=O)NC(=O)c3cccc4c3OC(F)(F)O4)cc2c1", "Study Target": "Dual specificity protein kinase CLK1 (Homo sapiens, UniProt P49759)", "Unit Annotation": "%", "inhibition": 43.1}
{"Structure Smiles String": "COc1ccc2sc(C(=O)NC(=O)c3ccc(F)cc3)cc2c1", "Study Target": "Dual specificity protein kinase CLK1 (Homo sapiens, UniProt P49759)", "Unit Annotation": "%", "inhibition": 35.7}
{"Structure Smiles String": "COc1ccc2sc(C(=O)NC(=O)c3cc(F)ccc3OC)cc2c1", "Study Target": "Dual specificity protein kinase CLK1 (Homo sapiens, UniProt P49759)", "Unit Annotation": "%", "inhibition": 83.3}
{"Structure Smiles String": "COc1ccc(OC)c(C(=O)NC(=O)c2cc3cc(OC)ccc3s2)c1", "Study Target": "Dual specificity protein kinase CLK1 (Homo sapiens, UniProt P49759)", "Unit Annotation": "%", "inhibition": 30.8}
{"Structure Smiles String": "COc1ccc2sc(C(=O)N(C)C(=O)c3ccccc3OC)cc2c1", "Study Target": "Dual specificity protein kinase CLK1 (Homo sapiens, UniProt P49759)", "Unit Annotation": "%", "inhibition": 15.7}
{"Structure Smiles String": "COc1ccc2sc(C(=O)NC(=O)c3ccccc3Cl)cc2c1", "Study Target": "Dual specificity protein kinase CLK1 (Homo sapiens, UniProt P49759)", "Unit Annotation": "%", "inhibition": 61.4}
{"Structure Smiles String": "COc1ccc2sc(C(=O)NC(=O)c3cc(C)ccc3OC)cc2c1", "Study Target": "Dual specificity protein kinase CLK1 (Homo sapiens, UniProt P49759)", "Unit Annotation": "%", "inhibition": 42.7}
{"Structure Smiles String": "COc1ccc2sc(C(=O)NC(=O)c3cc(Cl)cnc3OC)cc2c1", "Study Target": "Dual specificity protein kinase CLK1 (Homo sapiens, UniProt P49759)", "Unit Annotation": "%", "inhibition": 44.9}
{"Structure Smiles String": "COc1ccc2sc(C(=O)NC(=O)c3ccccc3)cc2c1", "Study Target": "Dual specificity protein kinase CLK1 (Homo sapiens, UniProt P49759)", "Unit Annotation": "%", "inhibition": 56.1}
{"Structure Smiles String": "COc1ccc2sc(C(=O)NC(=O)c3cccc(Cl)n3)cc2c1", "Study Target": "Dual specificity protein kinase CLK1 (Homo sapiens, UniProt P49759)", "Unit Annotation": "%", "inhibition": 33}
{"Structure Smiles String": "COc1ccc2sc(C(=O)NC(=O)c3cccc4c3OCCO4)cc2c1", "Study Target": "Dual specificity protein kinase CLK1 (Homo sapiens, UniProt P49759)", "Unit Annotation": "%", "inhibition": 9.2}

====

# Study Target: Dual specificity protein kinase CLK2 (Homo sapiens)
# Sequence (P49760 whole entry): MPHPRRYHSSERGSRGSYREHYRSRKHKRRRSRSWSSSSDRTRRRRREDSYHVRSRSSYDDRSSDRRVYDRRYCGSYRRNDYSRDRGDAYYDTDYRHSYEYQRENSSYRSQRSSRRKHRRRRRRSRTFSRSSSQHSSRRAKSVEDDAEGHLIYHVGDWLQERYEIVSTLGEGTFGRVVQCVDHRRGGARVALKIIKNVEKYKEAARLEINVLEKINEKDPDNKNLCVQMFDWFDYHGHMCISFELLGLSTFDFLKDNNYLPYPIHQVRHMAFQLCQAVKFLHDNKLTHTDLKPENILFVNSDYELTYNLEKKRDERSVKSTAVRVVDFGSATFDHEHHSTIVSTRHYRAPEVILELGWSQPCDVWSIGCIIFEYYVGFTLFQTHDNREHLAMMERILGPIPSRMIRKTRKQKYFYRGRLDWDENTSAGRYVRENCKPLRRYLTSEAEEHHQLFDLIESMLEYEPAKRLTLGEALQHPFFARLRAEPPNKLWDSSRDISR
# Experiment Summary: Inhibition of human recombinant GST-tagged Clk2 expressed in Baculovirus expression system using GRSRSRSRSRSRSRS peptide as substrate incubated for 15 mins in presence of ATP by phosphoimager analysis

{"Structure Smiles String": "COc1ccc2sc(C(=O)NC(=O)c3ccc(Br)cc3OC)cc2c1", "Inequality Symbol": ">", "IC50 (nM)": 250}
{"Structure Smiles String": "COc1ccc2sc(C(=O)NC(=O)c3cc(Cl)ccc3OC)cc2c1", "Inequality Symbol": "=", "IC50 (nM)": 486}
{"Structure Smiles String": "COc1ccc2sc(C(=O)NC(=O)c3cc(F)ccc3OC)cc2c1", "Inequality Symbol": "=", "IC50 (nM)": 250}
{"Structure Smiles String": "COc1ccc2sc(C(=O)NC(=O)c3cccc(F)n3)cc2c1", "Inequality Symbol": "=", "IC50 (nM)": 250}
{"Structure Smiles String": "COc1ccc2sc(C(=O)NC(=O)c3ccc(F)cc3OC)cc2c1", "Inequality Symbol": ">", "IC50 (nM)": 250}

====

# Study Target: Dual specificity protein kinase CLK1 (Homo sapiens, UniProt P49759)
# Experiment Summary: Inhibition of human recombinant GST-tagged Clk1 (129 to 484 residues) expressed in Escherichia coli expression system using GRSRSRSRSRSRSRS peptide as substrate incubated for 15 mins in presence of ATP by phosphoimager analysis
# Sequence (P49759 whole entry, the tested form may be a part): as the sequence (P49759 whole entry, looked up, the tested form may be a part) above
pIC50: −log10 of the molar value.
Parameter: pIC50

{"Structure Smiles String": "CCOc1ccccc1C(=O)NC(=O)c1cc2cc(OC)ccc2s1", "Study Target": "Dual specificity protein kinase CLK1 (Homo sapiens, UniProt P49759)", "Parameter": "pIC50", "Quantitative Result": 7.10}
{"Structure Smiles String": "COc1ccc2sc(C(=O)NC(=O)c3ccccc3Cl)cc2c1", "Study Target": "Dual specificity protein kinase CLK1 (Homo sapiens, UniProt P49759)", "Parameter": "pIC50", "Quantitative Result": 7.04}
{"Structure Smiles String": "COc1ccc2sc(C(=O)NC(=O)c3ccccc3OC)cc2c1", "Study Target": "Dual specificity protein kinase CLK1 (Homo sapiens, UniProt P49759)", "Parameter": "pIC50", "Quantitative Result": 7.46}
{"Structure Smiles String": "COc1ccc2sc(C(=O)NC(=O)c3cc(Cl)ccc3OC)cc2c1", "Study Target": "Dual specificity protein kinase CLK1 (Homo sapiens, UniProt P49759)", "Parameter": "pIC50", "Quantitative Result": 8.01}
{"Structure Smiles String": "COc1ccc2sc(C(=O)NC(=O)c3ccc(F)cc3OC)cc2c1", "Study Target": "Dual specificity protein kinase CLK1 (Homo sapiens, UniProt P49759)", "Parameter": "pIC50", "Quantitative Result": 8.40}
{"Structure Smiles String": "COc1ccc2sc(C(=O)NC(=O)c3cc(F)ccc3OC)cc2c1", "Study Target": "Dual specificity protein kinase CLK1 (Homo sapiens, UniProt P49759)", "Parameter": "pIC50", "Quantitative Result": 7.74}
{"Structure Smiles String": "COc1ccc2sc(C(=O)NC(=O)c3cc(F)ccc3F)cc2c1", "Study Target": "Dual specificity protein kinase CLK1 (Homo sapiens, UniProt P49759)", "Parameter": "pIC50", "Quantitative Result": 7.15}
{"Structure Smiles String": "COc1ccc2sc(C(=O)NC(=O)c3ccccc3OC(F)(F)F)cc2c1", "Study Target": "Dual specificity protein kinase CLK1 (Homo sapiens, UniProt P49759)", "Parameter": "pIC50", "Quantitative Result": 7.31}
{"Structure Smiles String": "COc1ccc2sc(C(=O)NC(=O)c3ccc(Br)cc3OC)cc2c1", "Study Target": "Dual specificity protein kinase CLK1 (Homo sapiens, UniProt P49759)", "Parameter": "pIC50", "Quantitative Result": 7.12}
{"Structure Smiles String": "CCCOc1ccccc1C(=O)NC(=O)c1cc2cc(OC)ccc2s1", "Study Target": "Dual specificity protein kinase CLK1 (Homo sapiens, UniProt P49759)", "Parameter": "pIC50", "Quantitative Result": 7.05}
{"Structure Smiles String": "COc1ccc2sc(C(=O)NC(=O)c3cccc(F)n3)cc2c1", "Study Target": "Dual specificity protein kinase CLK1 (Homo sapiens, UniProt P49759)", "Parameter": "pIC50", "Quantitative Result": 7.68}
